Source of measurements: ChEMBL document CHEMBL1201862

Test system: EKVX
METHOD_SUMMARY: NCI tumour cell line growth inhibition, 48 h
The source made the active and inactive calls. Cut-off read from the data, not from the text of the source: active = GI50 up to about 1.1 µM and inactive = higher.
Kindly supply the reported GI50 values for the records listed here.

Enquiry: Consider the molecule C[C@@H]1CC[C@@]2(C)C(C(=O)O)=CCCC2[C@@]1(C)CC(=O)c1ccoc1 (stereo not given in full) . State its measured GI50.
Return: > 25 µM (inactive)

Enquiry: Consider the molecule CC(=O)n1cc(C2CC23N=C(c2ccccc2)OC3=O)c2ccccc21 (stereo not given) . State its measured GI50.
Return: 21.8 µM (inactive)

Enquiry: Consider the molecule CCOC(=O)c1c(C)n(-c2ccc(C)cc2)c(=O)c2ccccc2c(=O)c2c(=O)ccc(=O)c1=2 . State its measured GI50.
Return: 21.6 µM (inactive)

Enquiry: Consider the molecule CC[C@]12C=CCN3CC[C@@]4(c5cc(Br)c(OC)c([N+](=O)[O-])c5N(C)[C@H]4[C@@](O)(C(=O)OC)[C@@H]1OC(C)=O)[C@@H]32 . State its measured GI50.
Return: 29.6 µM (inactive)

Enquiry: Consider the molecule C=CCNC(=S)NNC(=O)c1c(C)nc2sccn12 . State its measured GI50.
Return: > 100 µM (inactive)

###

Test system: BT-549
METHOD_SUMMARY: NCI tumour cell line growth inhibition, 48 h
The source made the active and inactive calls. Rule as the data show it: active = GI50 up to about 1.1 µM and inactive = higher.
QUANTITY: GI50

Enquiry: With BT-549 as the test system, provide measured GI50 for this compound: O=C1c2ccccc2C(=O)N1n1c(Cc2ccc(Cl)cc2)n[nH]c1=O
Return: > 100 µM (inactive)

Enquiry: With BT-549 as the test system, provide measured GI50 for this compound: O=C(O)C(O)c1ccc(F)cc1 (centres undefined)
Return: > 100 µM (inactive)

Enquiry: With BT-549 as the test system, provide measured GI50 for this compound: Cn1c(=O)nc2n(CCO)ccnc-2c1=O
Return: > 100 µM (inactive)

Enquiry: With BT-549 as the test system, provide measured GI50 for this compound: O=C1C[C@H](Sc2ccccc2)C2(OCCO2)[C@@H](Sc2ccccc2)C1
Return: 1.97 µM (inactive)

Enquiry: With BT-549 as the test system, provide measured GI50 for this compound: Cc1ccc(C2(c3ccc(C)c(O)c3C)CCN(C)CC2)c(C)c1O
Return: > 100 µM (inactive)

Enquiry: With BT-549 as the test system, provide measured GI50 for this compound: CCOC(=O)c1c(N=C(S)Nc2ccccc2)sc2c1CCN(C)C2
Return: > 100 µM (inactive)

Enquiry: With BT-549 as the test system, provide measured GI50 for this compound: CN1CC2=C(OC(N)=C(C#N)C2c2cccs2)/C(=C/c2cccs2)C1 (centres undefined)
Return: 5.62 µM (inactive)

Enquiry: With BT-549 as the test system, provide measured GI50 for this compound: Cc1nc(O)nc(N/N=C/c2c3ccccc3c(Cl)c3ccccc23)c1C(=O)Nc1ccc(Cl)cc1
Return: > 100 µM (inactive)

Enquiry: With BT-549 as the test system, provide measured GI50 for this compound: CCC(C(=O)C(=O)OC)P1(=O)OC(C)(C)CN1C(C)(C)C (centres undefined)
Return: > 100 µM (inactive)

Enquiry: With BT-549 as the test system, provide measured GI50 for this compound: CC1=CC(=O)C2=C(C)CCC3C(C)C(=O)OC3C12 (centres undefined)
Return: > 100 µM (inactive)

Enquiry: With BT-549 as the test system, provide measured GI50 for this compound: CC(C)(C)OC(=O)NC(CCCCNC(=O)OCc1ccccc1)C(=O)NC(CCCCNC(=O)OCc1ccccc1)C(=O)ON1C(=O)CCC1=O (centres undefined)
Return: > 100 µM (inactive)

Enquiry: With BT-549 as the test system, provide measured GI50 for this compound: N#CCc1c(F)c(F)c(F)c(F)c1F
Return: > 100 µM (inactive)

Enquiry: With BT-549 as the test system, provide measured GI50 for this compound: N#Cc1c(C#N)c(-c2ccccc2)n(-c2ccccc2)c1N
Return: 48.4 µM (inactive)

Enquiry: With BT-549 as the test system, provide measured GI50 for this compound: CNC(=O)OCC1=C(COC(=O)NC)CN(c2ccccc2)C1
Return: > 100 µM (inactive)

Enquiry: With BT-549 as the test system, provide measured GI50 for this compound: O=C(O)CN(CC(=O)O)C(C(=O)O)c1ccccc1 (centres undefined)
Return: > 100 µM (inactive)

Enquiry: With BT-549 as the test system, provide measured GI50 for this compound: COc1cccc(CSCC(=O)O)c1
Return: > 100 µM (inactive)

Enquiry: With BT-549 as the test system, provide measured GI50 for this compound: C[C@@](Br)(C(=O)O)[C@H](Br)C(=O)O
Return: > 100 µM (inactive)

Enquiry: With BT-549 as the test system, provide measured GI50 for this compound: CC12CC(Br)(Br)C(=O)C3C1CCCC32
Return: 2.09 µM (inactive)

Enquiry: With BT-549 as the test system, provide measured GI50 for this compound: Fc1cccc(F)c1C1SCc2nc3cc(Cl)c(Cl)cc3n21 (centres undefined)
Return: > 100 µM (inactive)

Enquiry: With BT-549 as the test system, provide measured GI50 for this compound: Nc1ncnc2c1ncn2[C@H]1CC[C@@H](NO)C1
Return: > 100 µM (inactive)

Enquiry: With BT-549 as the test system, provide measured GI50 for this compound: CN(C)CCCNc1c2c(=O)n(C)c(=O)nc-2n(C)c2ccccc12
Return: 12.7 µM (inactive)

Enquiry: With BT-549 as the test system, provide measured GI50 for this compound: CCOC(=O)C1=C(C(=O)OCC)SC2(S1)C(C(=O)OCC)=C(C(=O)OCC)Sc1c2ssc1=O
Return: 1.94 µM (inactive)

Enquiry: With BT-549 as the test system, provide measured GI50 for this compound: Clc1ccc(Cc2nc3ccccc3o2)cc1
Return: 35.8 µM (inactive)

Enquiry: With BT-549 as the test system, provide measured GI50 for this compound: OCCCC(O)(c1ccccc1)c1ccccc1
Return: > 100 µM (inactive)

###

Test system: ACHN
METHOD_SUMMARY: NCI tumour cell line growth inhibition, 48 h
Activity calls are given as the source filed them. Rule as the data show it: active = GI50 up to about 1.1 µM and inactive = higher.
# valid calls are active, inactive; nothing else

Enquiry: For CCC1CC(C)C(O)/C=C/C=C/CC(C)OC(=O)CC(O)C(OC)C1OC1OC(C)CC(O)(C(C)=O)C1O (configuration not stated) , which call appears in the assay record?
Return: inactive

Enquiry: For O=C1C(Cl)=C(NCCOCCO)C(=O)c2c(O)ccc(O)c21 , which call appears in the assay record?
Return: inactive

Enquiry: For O=[N+]([O-])c1cccnc1NCC1(CO)CCCC1 , which call appears in the assay record?
Return: inactive

Enquiry: For COc1nc2c(c(O)c(C)c(=O)n2OC2OC(COC(C)=O)C(OC(C)=O)C(OC(C)=O)C2OC(C)=O)c(=O)n1C (configuration not stated) , which call appears in the assay record?
Return: inactive

Enquiry: For O=c1[nH]nc(Cc2ccc([N+](=O)[O-])cc2)[nH]1 , which call appears in the assay record?
Return: inactive

Enquiry: For Cc1ccc(Cl)c2c(=O)cc(-c3ccccc3)[nH]c12 , which call appears in the assay record?
Return: inactive

Enquiry: For CC(O)c1ccc[n+](Cc2ccccc2)c1 (configuration not stated) , which call appears in the assay record?
Return: inactive

Enquiry: For C/C=C1/CN2CCC34c5ccccc5N(C)C23C2CC1C4(C(=O)OC)C(OC(C)=O)O2 (configuration not stated) , which call appears in the assay record?
Return: inactive

Enquiry: For CC(=O)NC1=C(N)C(=O)c2ccccc2C1=O , which call appears in the assay record?
Return: inactive

Enquiry: For CCN1CCC(O)(c2ccc(Cl)c(Cl)c2)C(C(=O)c2ccc(Cl)c(Cl)c2)C1 (configuration not stated) , which call appears in the assay record?
Return: inactive

Enquiry: For CC1=Nc2ccccc2/C1=C\c1c(C)[nH]c2ccccc12 , which call appears in the assay record?
Return: inactive

Enquiry: For COC(=O)C1=C(C(=O)OC)C(C(=O)OC)C(C(=O)OC)C(C(=O)OC)(C(=O)OC)C(C(=O)OC)=C1C(=O)OC (configuration not stated) , which call appears in the assay record?
Return: inactive

Enquiry: For CCOC(=O)C(O)(C(=O)OCC)c1cc(C(C)(C)C)c(O)c(C(C)(C)C)c1 , which call appears in the assay record?
Return: inactive

Enquiry: For CC12CCC([C@H](N3CCOCC3)/C1=N\OCCN1CCCC1)C2(C)C (some centres not stated) , which call appears in the assay record?
Return: inactive

Enquiry: For CC1(C)CC(=O)C(=CNC(=S)c2ccccc2)C(=O)C1 , which call appears in the assay record?
Return: inactive

Enquiry: For CN(C)c1ccc(-c2ccc(N(C)C)c3n[se]nc23)c2n[se]nc12 , which call appears in the assay record?
Return: inactive

Enquiry: For O=C1c2cccc3cc4ccccc4c(c23)C(=O)N1CCCNCCNCCCN1C(=O)c2cccc3cc4ccccc4c(c23)C1=O , which call appears in the assay record?
Return: active

Enquiry: For Cc1nnc2n1-c1ccccc1C(=S)N1CSCC21 (configuration not stated) , which call appears in the assay record?
Return: inactive

Enquiry: For Cc1ccc(C2(c3ccc(C)c(O)c3C)CCN(C)CC2)c(C)c1O , which call appears in the assay record?
Return: inactive

Enquiry: For Cc1c(C(=N)N)oc2ccccc12 , which call appears in the assay record?
Return: inactive

Enquiry: For CN1CC2=C(OC(N)=C(C#N)C2c2cccs2)/C(=C/c2cccs2)C1 (configuration not stated) , which call appears in the assay record?
Return: inactive

Enquiry: For CC(C)(C)Nc1noc(=O)n1C(C)(C)C , which call appears in the assay record?
Return: inactive
